The reported measurements were obtained from PubChem BioAssay (NCI).

System: SK-MEL-28 melanoma
assay remarks: NCI-60 one-dose screen, 48 h
condition summary: 10 µM unless noted
This is part of a sample that, as a whole, favours compounds with a hit. Of some 83,000 tested, about 20% had one in any assay. The source made the active and inactive calls. Rule for the calls: active = growth percent below 10; inactive = the rest.
// classify into yes (1) = active, no (0) = inactive

(Q) Please share the test call associated with CC1=CC(=Nc2ccc(N(CCCl)CCCl)cc2)C=C(C)C1=O .
(A) no (0)

(Q) Please share the test call associated with CO/N=C1\CC[C@]2(C)[C@H]3CC[C@]4(C)C(=O)CC[C@H]4[C@@H]3C[C@@H]3SC(N)=N[C@@]32C1 .
(A) no (0)

(Q) Please share the test call associated with C[C@]12CC[C@H]3[C@@H](C[C@@H]4SC(Nc5cccc(F)c5)=N[C@@]45CC(=O)CC[C@]35C)[C@@H]1CCC2=O .
(A) no (0)

(Q) Please share the test call associated with C=CC[PH+](c1ccccc1)c1ccccc1.C=CC[PH+](c1ccccc1)c1ccccc1.[Pt+2].[S-]c1nc2ccccc2[nH]1.[S-]c1nc2ccccc2[nH]1 .
(A) yes (1)

(Q) Please share the test call associated with CC/C(Cc1ccccc1)=C(\c1ccc(OCCN2CCCC2)cc1)c1ccc(OC(=O)NCc2ccccc2)cc1 .
(A) yes (1)

(Q) Please share the test call associated with ClC1OC(Cl)(Cl)C(Cl)(Cl)OC1(Cl)Cl (centres undefined) .
(A) no (0)

(Q) Please share the test call associated with C[C@]12CC[C@H]3[C@@H](CC=C4c5nc(-c6ccc(Br)cc6)sc5CC[C@@]43C)[C@@H]1CC[C@@H]2O .
(A) no (0)

(Q) Please share the test call associated with COC12CC3C4=CCOC5CC(=O)N6c7ccccc7C1(CCN2C4)C6C53 (centres undefined) .
(A) no (0)

(Q) Please share the test call associated with O=[N+]([O-])c1c(Cl)cc(Cl)c([N+](=O)[O-])c1Cl .
(A) no (0)

(Q) Please share the test call associated with Nc1c(Cl)c(Cl)nc(C(=O)O)c1Cl .
(A) no (0)

(Q) Please share the test call associated with CC[C@H](C)[C@H](NC(=O)[C@H]1CCCCN1C)C(=O)N(C)[C@H](CCc1nc(C(=O)N[C@@H](Cc2ccccc2)C[C@H](C)C(=O)O)cs1)C(C)C .
(A) no (0)

(Q) Please share the test call associated with O=S(=O)(c1ccc(O)cc1)c1ccccc1O .
(A) no (0)

(Q) Please share the test call associated with COc1cc(-c2ccc(N)c(OC)c2)ccc1N .
(A) no (0)

(Q) Please share the test call associated with CC(=O)Nc1nc2c(s1)C1=CC[C@H]3[C@@H]4CC[C@H](OC(C)=O)[C@@]4(C)CC[C@@H]3[C@@]1(C)CC2 .
(A) no (0)

(Q) Please share the test call associated with N#Cc1ccc(Cl)cc1 .
(A) no (0)

(Q) Please share the test call associated with CC[C@H](C)[C@H](NC(=O)CN(C)C)C(=O)N(C)[C@H](C[C@@H](OC(C)=O)c1nc(C(=O)NC23CC(C(=O)OC)(C2)C3)cs1)C(C)C .
(A) no (0)

(Q) Please share the test call associated with Clc1ccc(COC(Cn2ccnc2)c2ccc(Cl)cc2Cl)c(Cl)c1 (centres undefined) .
(A) no (0)

(Q) Please share the test call associated with Cc1c2ccncc2c(C)c2c1[nH]c1ccccc12 .
(A) yes (1)

(Q) Please share the test call associated with CC12CCC3C4CCC(=O)C=C4CCC3C1CC1CC(=O)OC12 (centres undefined) .
(A) no (0)
